For each record, write down the corresponding RP-LC retention time.
- method-description: gradient 5% acetonitrile 3 min, to 50% in 2 min, to 85% in 15 min, held 3 min, 100 µL/min
- test-settings: column: Zorbax Extend-C18 2.1 x 50 mm; eluents: water / acetonitrile, 0.1% formic acid
Numbers only, in s.

> print(dat)
                                   molecule  quantitative.readout
1  CN(C)C(=O)c1n[nH]c2c1CN(C(=O)c1ccc(Br)cc1)CC2                   634
2  CCCc1nnc(NC(=O)CSc2ncc(-c3ccccc3)[nH]2)s1                   632
3  O=C(NC1CCCC1)c1ccc2ccnc(N3CCN(c4ccc(F)cc4)CC3)c2c1                   803
4  COc1ccc(NC(=O)C2CCCN(c3nccnc3Oc3ccccc3)C2)cc1Cl (centres undefined)                  1050
5  Cc1ccc2nc(NC3=NCN(CCc4cccs4)CN3)nc(C)c2c1                   746

Below are 6 molecules. Give each one its RP-LC retention time.
1. Cc1ccc(N2CC(NC(=O)C(=O)c3c[nH]c4ccccc34)CC2=O)cc1 (centres undefined)
2. Cc1cc(S(=O)(=O)N2CCc3c(c(-c4nnc(-c5ccc(F)cc5)o4)nn3C)C2)ccc1F
3. Cc1ccc(Cl)cc1NC(=O)C1CCCN(c2nnc(C)c3c(C)n(-c4ccccc4)nc23)C1 (centres undefined)
4. CCn1ccc2sc(C)c(C(=O)NCc3ccc4c(c3)OCO4)c2c1=O
5. COc1ccc(CCNCC(O)Cn2c3c(c4ccccc42)CCN(C)C3=O)cc1OC (centres undefined)
6. O=S(=O)(c1ccc(-c2nnc(C3CC3)o2)o1)N1CCCCCC1

1. 823
2. 992
3. 802
4. 769
5. 666
6. 898

----------
- method-description: gradient 5% acetonitrile 3 min, to 50% in 2 min, to 85% in 15 min, held 3 min, 100 µL/min
- test-settings: column: Zorbax Extend-C18 2.1 x 50 mm; eluents: water / acetonitrile, 0.1% formic acid
measured-parameter: RP-LC retention time (s)
Give bare numbers, in s.

> print(dat)
                                   compound  quantitative.readout
1                CCCNC(=O)c1csc(C(=O)NCC)n1                   670
2  COc1ccc(NC(=O)N2CCC3(C2)C(=O)Nc2ccccc23)cc1 (stereo not given)                   702
3  Cc1ccccc1OCC(O)CN1CCN(c2ccc(Cl)cc2)CC1 (stereo not given)                   787

Give one value of RP-LC retention time per listed compound.
1. CCc1ccc(C2=Nc3cccnc3N(CC(=O)Nc3ccc4c(c3)OCCO4)C(=O)C2)cc1
2. CC(C)c1nnc(-c2coc(S(=O)(=O)N3CCN(c4ccccn4)CC3)c2)o1
3. CCc1ccccc1NC(=O)N1CCC2(CC1)NC(=O)c1ccccc1N2C
4. COc1ccc(C(=O)COc2ccccc2OC)cc1
5. COC(=O)c1c(NCc2cccnc2)c2cccc(Cl)c2[nH]c1=O
6. Cc1noc(C)c1CNC(=O)CCCc1ccccc1

1020
657
731
825
566
760

Below is a list of compounds. For each, state its recorded RP-LC retention time.
1. COc1ccc(-c2cn3c(CC(=O)Nc4ccc(Cl)c(C(F)(F)F)c4)csc3n2)cc1OC
2. COCc1nc2ccccc2n1CC(=O)N(c1ccccc1)C(C)C

[882, 707]

Report RP-LC retention time for each item below.
1. OCC1CN(C2CCC2)CC12CCN(Cc1ccccc1F)CC2 (stereo not given)
2. O=C(NC1CCN(c2cc(-c3ccc(F)cc3)[nH]n2)C1)c1ccccc1 (stereo not given)
3. O=C(Nc1cnc(-c2ccccc2)nc1)c1cccc(F)c1
4. COc1cccc(-n2c(N3CCCC(C(=O)NC4CCCC4)C3)nc3ccsc3c2=O)c1 (stereo not given)
5. COc1ccc(NC(=O)C2CCN(S(=O)(=O)c3cn(C(C)C)cn3)CC2)cc1
6. COc1cc(CNCCc2c[nH]c3ccccc23)ccc1OCc1ccc2c(c1)n(C)c(=O)n2C

[591, 705, 970, 818, 711, 670]

Give RP-LC retention time for all compounds that follow.
1. CC1CCN(C2=NCCN2C(=O)c2ccccc2Cl)CC1
2. CC1CCN(S(=O)(=O)c2nn(C)cc2C(=O)NCC(C)c2ccccc2)CC1 (stereo not given)
3. Cc1nn(-c2ccc(F)cc2)c(C)c1S(=O)(=O)N1CCC(C(=O)NCC2CCCO2)CC1 (stereo not given)

[655, 1030, 742]

----------
What RP-LC retention time was measured for each of the following?
- method-description: gradient 5% acetonitrile 3 min, to 50% in 2 min, to 85% in 15 min, held 3 min, 100 µL/min
- test-settings: column: Zorbax Extend-C18 2.1 x 50 mm; eluents: water / acetonitrile, 0.1% formic acid
Answers are plain numbers, in s.

Would you mind listing RP-LC retention time for each of the following molecules?
1. Cc1cccc(S(=O)(=O)N2CCc3nc(-c4ccccc4)ncc3C2)c1C
2. CCOc1ccc(-c2cc3c(=O)n(Cc4nc(-c5ccc(Cl)cc5)no4)ncn3n2)cc1

1. 1160
2. 1140

----------
- method-description: gradient 5% acetonitrile 3 min, to 50% in 2 min, to 85% in 15 min, held 3 min, 100 µL/min
- test-settings: column: Zorbax Extend-C18 2.1 x 50 mm; eluents: water / acetonitrile, 0.1% formic acid
Assign RP-LC retention time to each entry below.
One number for each entry, in s.

Sample answers from the record:
> print(dat)
                                smiles.data    measured.parameter  quantitative.readout
1  O=C(NCCN1CCOCC1)c1nc2ccccn2c1-c1ccc(Cl)cc1  RP-LC retention time                   647
2  CCOC(=O)c1ccc2ncc(C(=O)OCC)c(NCCN(C)C)c2c1  RP-LC retention time                   569
3  COc1ccc(-c2nc(CCS(=O)(=O)c3ccc(Cl)cc3)no2)cc1OC  RP-LC retention time                   946
4  CCSc1nnc(-c2nn(C)c3c2CN(C(=O)CCc2ccccc2)CC3)n1C  RP-LC retention time                   767

Continue with the compound presented below.
Query (compound): Cc1ccn2c(Nc3ccc4c(c3)OCCO4)c(-c3ccccc3O)nc2c1 ; field requested: RP-LC retention time
670

----------
Please respond with reported RP-LC retention time for every item in the list.
- method-description: gradient 5% acetonitrile 3 min, to 50% in 2 min, to 85% in 15 min, held 3 min, 100 µL/min
- test-settings: column: Zorbax Extend-C18 2.1 x 50 mm; eluents: water / acetonitrile, 0.1% formic acid
One number for each entry, in s.

Field: example entries. Status: answers known.
> print(dat)
                                   molecule    measured.parameter  readout.units  quantitative.readout
1   CCOc1ccc(NC(=O)Nc2cc(C(C)C)c(O)cc2C)cc1  RP-LC retention time              s                   909
2  Cc1nn(-c2ccccc2)c2c1N(CC(=O)N1CCN(c3ccc(F)cc3)CC1)C(=O)CS2  RP-LC retention time              s                   915
3  CO[C@H]1CN(C2CCN(S(=O)(=O)Cc3ccccc3F)CC2)[C@H]1c1ccncc1  RP-LC retention time              s                   620

# per-item lookup of RP-LC retention time; items listed below
1. COC(=O)c1ccc(C(=O)NCC2(c3cccs3)CCCC2)cc1
2. C[C@@H](O)[C@H](NC(=O)c1ccc(C#Cc2ccc(CN3CCOCC3)cc2)cc1)C(=O)NO
3. Cc1cc2c(cc1S(=O)(=O)N1CCCC1C(=O)NCCCc1ccccc1)OCC(=O)N2 (stereo not given)
4. O=C(CNC(=O)c1cccc(Br)c1)NCc1cscn1
5. O=C(Cn1ccn2nc(-c3ccccc3)c(CO)c2c1=O)NCCC1=CCCCC1
6. Cc1ccc(NC(=O)Nc2ccc3nncn3c2)cc1
7. CN1C2CCC1[C@@H](COC(=O)c1ccccc1)[C@@H](O)C2 (stereo not given in full)
8. CCN1C(=O)COc2ccc(-c3csc(NC(=O)CCc4ccccc4)n3)cc21

1: 971; 2: 629; 3: 816; 4: 652; 5: 857; 6: 700; 7: 636; 8: 664

Each molecule below has a reported value. Please supply its RP-LC retention time.
1. Cc1nc(NC2=NCN(Cc3ccc4c(c3)OCO4)CN2)nc2ccccc12
2. Cc1ccc(NC(=O)CN2C(=O)C3CCCCN3c3ccc(S(=O)(=O)N(C)C)cc32)c(C)c1 (stereo not given)
3. CCCn1c(C)cnc1C1CN(C(=O)C(C)C)C1
4. O=C(NC1CCN(c2cc(-c3ccc(F)cc3)[nH]n2)C1)c1ccc2cc[nH]c2c1 (stereo not given)
5. O=C(CSc1ncccc1C(=O)O)Nc1nc(-c2ccccc2)cs1
6. Cc1ccccc1NC(=O)c1sc(-c2cn(C)c3ncccc23)nc1C
7. COc1ccc(-c2ccnc3nc(Cc4cc(F)cc(F)c4)nn23)c(F)c1

707
994
553
714
822
890
973

Okay, here is my list. What is RP-LC retention time for each of these?
1. O=C(C1CCN(c2cncnc2N2CCCC2)CC1)N1CCCCC1
2. CCc1nc2cc(-c3noc(CNC(=O)Cc4ccccc4)n3)ccc2o1

1: 613; 2: 819

Data origin: the METLIN SMRT retention time set (Domingo-Almenara et al. 2019)
